- Test system: Zika virus NS2B-NS3 protease
- ASSAY TEXT: Primary screen GU AMC qHTS for Zika virus inhibitors (AID 1347154); note: nearly all actives have a fitted effect of over 70% in size
- EXPERIMENTAL PARAMETERS: Zika NS2B-NS3 unlinked protease, AMC fluorogenic substrate; series mostly up to 54.1 µM
Results filed as inconclusive are left out. Activity calls are given as the source filed them. Calls come from the whole dose curve; as a rule, active = well fitted inhibition curve with a large enough effect; inconclusive = small, poorly fitted or top-dose-only effect; inactive = flat fitted curve, though single readings scatter.
MEASURED PARAMETER: outcome

Worked set:
Value of outcome reported for the molecule CC(=O)c1c(O)c(C)c(O)c(Cc2c(O)c3c(c(C(=O)/C=C/c4ccccc4)c2O)OC(C)(C)C=C3)c1O is inactive

Value of outcome reported for the molecule CN1CCC(c2c[nH]c3ccc(O)cc23)CC1 is inactive

Value of outcome reported for the molecule CC(N)Cc1c[nH]c2ccc(O)cc12 (stereo not given) is inactive

Value of outcome reported for the molecule N#CC(C#N)=Cc1cc(O)c(O)c(O)c1 is inactive

Value of outcome reported for the molecule C[N+]1(C)CCN(c2ccccc2)CC1 is inactive

Others:
Value of outcome reported for the molecule CCCN(CCC)[C@@H]1CCc2cccc(O)c2C1 is inactive

Value of outcome reported for the molecule Cc1[nH]c2ccc(O)cc2c1CCN is inactive

Value of outcome reported for the molecule c1ccc2c(N3CCNCC3)cccc2c1 is inactive

Value of outcome reported for the molecule CC(C)(C)c1cc(C=C(C#N)C#N)cc(C(C)(C)C)c1O is inactive

Value of outcome reported for the molecule C[N+](C)(C)CC#CCN1CCCC1=O is inactive

Numbers sourced from PubChem BioAssay (NCATS).
